B1: KLHL13 (parent)
chain: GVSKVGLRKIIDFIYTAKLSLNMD

# Variants of: B1
# testDescription: protein stability index of a GFP-peptide fusion (GPS, HEK-293T) (PSI 1-6); higher = more stable;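 also: lentivirally expressed fusions sorted by FACS into six bins by GFP to DsRed ratio, PSI derived from sequencing read proportions per bin multiplied by bin number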
# assaySetup: c terminus: a fixed tail appended
Listed here are variants together with their documented protein stability index.
observedProperty: protein stability index

L21F    2.21
D24N    2.74
G6Q    2.4
L7W    2.05
D12S    3.08
G6W    2.32
D12H    1.92
G6L    4.85
V5R    3.04
K9Y    2.81
I14K    1.94
L7T    2.6
D12T    2.9
I14S    2.02
D12N    1.55
L7R    2.5
I14N    2.15
S3Y    3.66
A17R    2.95
F13P    2.22
N22H    2.41
M23K    1
A17Y    3.45
D24K    1.71
V2N    2.03
D12E    2.27
L7I    3.25
G1Q    2.05
G1A    3.93
N22Y    1.99
K18Q    3.22
L21P    1.86
M23Q    1.55
V5P    2.58
K4N    2.24
V5E    1.83
V2D    3.51
L21Q    3.01
K4M    2.42
T16I    2.72
K9I    3.12
K4A    3.12
T16H    1.63
R8H    2.07
V5G    3.21
I11N    2.24

These measurements were taken from the supplement of paper PMC10567573.
